- PROTOCOL DETAILS: Metabolic stability in liver S9 fraction (disappearance, half-life, CLint)
- MEASUREMENT CONDITIONS: Sprague-Dawley, rat, pooled liver S9, pH 7.4

COMPOUND SMILES: CCCCCCCCCCCCOCCOCCOCCOCCO
UNIT INFO: µL/min/mg
microsomal CLint at 10 µM: 40.7

COMPOUND SMILES: CCCCCCCCCCOCCOCCOCCOCCOCCO
UNIT INFO: µL/min/mg
microsomal CLint at 10 µM: 38

COMPOUND SMILES: CCCCCCCCOCCOCCOCCOCCO
UNIT INFO: µL/min/mg
microsomal CLint at 10 µM: 7.95
